Reported Emax values for the following compounds.
- target_or_system: human sphingosine-1-phosphate receptor 1 (S1P1) (Homo sapiens)
- Sequence (P21453 whole entry): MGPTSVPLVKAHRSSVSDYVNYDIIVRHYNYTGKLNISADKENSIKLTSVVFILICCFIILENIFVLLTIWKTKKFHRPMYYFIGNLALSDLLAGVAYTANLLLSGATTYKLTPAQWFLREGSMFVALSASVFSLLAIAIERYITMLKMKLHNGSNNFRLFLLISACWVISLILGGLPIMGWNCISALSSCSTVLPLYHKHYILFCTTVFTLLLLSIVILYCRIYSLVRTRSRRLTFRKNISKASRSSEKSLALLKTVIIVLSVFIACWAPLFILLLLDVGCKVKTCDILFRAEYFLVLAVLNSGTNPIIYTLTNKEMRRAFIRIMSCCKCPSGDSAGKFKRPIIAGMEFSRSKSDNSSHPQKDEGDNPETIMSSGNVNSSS
- measurement_notes: Inhibition of cAMP production (HTRF cAMP HiRange), S1P1 CHO-K1 cells
- Type: cell-based
- measurement_context: CHO-K1; inhibition of cAMP production; efficacy normalized to maximum efficacy of fingolimod; read-out: hS1P1 CAMP SPAN

C=CCn1nc2ccc(-c3nc(-c4ccccc4)no3)cc2n1 [Compound 39]; < 75%
O=C1CC2(CCCC2)Oc2ccc(-c3nc(-c4cccnc4)no3)cc21 [Compound 298]; > 75%
CC(C)Oc1ccccc1-c1noc(-c2ccc3c(c2)nnn3C(C)C)n1 [Compound 62]; > 75%

Provide only the value of recorded Emax for O=C1CC2(CCC(F)(F)CC2)Oc2ccc(-c3nc(-c4ccncc4)no3)cc21 [Compound 217]
< 75%

Supply Emax value. Item: CC(C)C(c1ccccc1)c1noc(-c2ccc3c(c2)nnn3C(C)C)n1 (stereo not drawn) [Compound 56]
< 75%

Determine its reported Emax: Brc1ccccc1-c1nc(-c2ccc3c(c2)nnn3C2CCCC2)no1 [Compound 40]
> 75%
